Value source: paper PMC5540273

Property: %Inh; scope: individual molecules
tested on: CAMK2A; conditions: concentration: 1 μM,replicates: in singlicate; n = 1;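 also: KINOMEscan kinase panel screen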
Entry rule: numbers only, all in %.

Known results for molecules:
COc1cc2ncn(-c3cc(OCC4CCCCC4)c(C(N)=O)s3)c2cc1OC [GSK204559] = 0
Cc1ccc2c(-c3ccnc(Nc4ccc(C(F)(F)F)cc4)n3)cnn2n1 [GW819776] = 0
NC(=O)c1ccc(-c2cc3ncnc(SCC(=O)O)c3s2)cc1 = 0
CS(=O)c1ccc(-c2coc3ccc(-c4n[nH]c(=O)o4)cc23)cc1 (stereo not drawn) = 5
C[C@@H](Oc1cc(-n2cnc3ccc(-c4ccncc4)cc32)sc1C(N)=O)c1ccccc1Cl [GSK483724] = 15

Determine from records and report %Inh for "O=C1NCCc2[nH]c(-c3ccncc3)cc21"
9

Report %Inh, nothing else, for this molecule: "Cn1ccc2ncnc(Oc3ccc(NC(=O)Nc4cnn(C(C)(C)C)c4)c(Cl)c3)c21"
0

Complete the entry with %Inh for CN1CCN(CCNc2nc3cc(Oc4ccc(NC(=O)Nc5cc(C(F)(F)F)ccc5F)cc4)ccc3[nH]2)CC1.Cl.Cl [GW768504]
0

Output measured %Inh for this item: CCCC(=O)Nc1n[nH]c2ncccc12 [SB-601436]
13

Return the recorded %Inh value; entry: COC(=O)c1cccc(NC(=O)NC2CCN(c3ccnc(NCc4ccc(F)cc4)n3)CC2)c1 [GSK1379860]
0

Fill in %Inh for record Cc1ccc(Nc2ccnc(Nc3ccc4c(c3)CS(=O)(=O)C4)n2)cc1O.Cl [GW579362]
0

Fill in %Inh for record "Cn1ccc2ncnc(Oc3ccc(NC(=O)Nc4cccc(C(F)(F)F)c4)c(F)c3)c21"
6

# return recorded %Inh for entry COc1cc(Nc2nccc(N3CCC(NC(=O)c4cccc(C#N)c4)C3)n2)cc(OC)c1OC (stereo not drawn) [GSK1379751]
0

Tell us which %Inh value is on record for COc1cccc(OC)c1C(=O)Nc1cccc(-c2nn3ccccc3c2-c2ccnc(Nc3cccc(F)c3)n2)c1 [GSK361065]
27

----------
Known %Inh of a selection of molecules
tested on: GSK3B; details: concentration: 1 μM,replicates: in singlicate; n = 1
Please answer using the number first and the unit second.

Cc1ccc(C(=O)Nc2ccc(Oc3ccc4nc(NC(=O)C5CC5)cn4c3)c(F)c2)c(=O)n1-c1ccccc1 = 0%

Indicate its recorded %Inh; the molecule in question is "Cn1ccc2ncnc(Oc3ccc(NC(=O)Nc4cccc(C(F)(F)F)c4)c(Cl)c3)c21"
0%

----------
Entries and their %Inh values follow.
test system: DAPK2; settings: concentration: 1 μM,replicates: in singlicate; n = 1
I'd appreciate it if you included the unit after the number.

Cc1ccc2c(-c3ccnc(Nc4ccc(C(F)(F)F)cc4)n3)cnn2n1 [GW819776] = 0%
COc1cc2ncn(-c3cc(OCC4CCCCC4)c(C(N)=O)s3)c2cc1OC [GSK204559] = 30%
CC(=O)c1c(-c2ccncc2)[nH]c(-c2ccncc2)c1C [GW493036] = 0%
C[C@@H](Oc1cc(-n2cnc3cc(-c4ccncc4)ccc32)sc1C(N)=O)c1ccccc1Cl [GSK479719] = 30%
Cn1cc(-c2cccc3c(N)c(C(N)=O)nnc23)cn1 = 16%
O=C(Nc1ccc(Oc2ccc3nc(NC(=O)C4CC4)cn3n2)c(F)c1)c1cccn(-c2ccccc2)c1=O = 0%
CN1CCN(CCNc2nc3cc(Oc4ccc(NC(=O)Nc5cc(C(F)(F)F)ccc5F)cc4)ccc3[nH]2)CC1.Cl.Cl [GW768504] = 0%
Cl.Nc1n[nH]c2cc(-c3ccccn3)ccc12 [GSK2189892] = 0%
OCCn1cc(-c2cnc3nnn(Cc4ccc5ncccc5c4)c3n2)cn1 = 0%
CCOC(=O)N1CCC(n2cnc(-c3ccc(F)cc3)c2-c2ccnc(N)n2)CC1 [SB-219952] = 0%

Please report %Inh for the following compound: "CS(=O)(=O)c1cccc(CNc2nc(Nc3ccc4c(c3)[C@@H]3C[C@@H]4CNC3=O)ncc2C(F)(F)F)c1"
0%

Hello, please tell me recorded %Inh for this one: COC(=O)Nc1nc2cc(Oc3ccc(NC(=O)Nc4cc(C(F)(F)F)ccc4Cl)cc3)ccc2[nH]1.Cl [GW697465]
0%

For the compound COc1cccc(C2=C(Nc3cccc(Cl)c3)C(=O)NC2=O)c1 [SB-341556] , give its measured %Inh value.
0%

For "Cc1ccc(C(=O)Nc2ccc(Oc3ccc4nc(NC(=O)C5CC5)cn4c3)c(F)c2)c(=O)n1-c1ccccc1" , write its %Inh.
0%

Tell me measured %Inh for CC(C(=O)NC1CCN(c2ccnc(Nc3ccc(F)cc3)n2)C1)c1ccc(Cl)cc1 (stereo not shown) [GSK1379713] please.
0%

Indicate the recorded %Inh value for this compound: CCn1c(-c2nonc2N)nc2cncc(Br)c21 [SB-738004]
55%
